# System tested: TYK2 (Homo sapiens, UniProt P29597)
# Sequence (P29597 whole entry): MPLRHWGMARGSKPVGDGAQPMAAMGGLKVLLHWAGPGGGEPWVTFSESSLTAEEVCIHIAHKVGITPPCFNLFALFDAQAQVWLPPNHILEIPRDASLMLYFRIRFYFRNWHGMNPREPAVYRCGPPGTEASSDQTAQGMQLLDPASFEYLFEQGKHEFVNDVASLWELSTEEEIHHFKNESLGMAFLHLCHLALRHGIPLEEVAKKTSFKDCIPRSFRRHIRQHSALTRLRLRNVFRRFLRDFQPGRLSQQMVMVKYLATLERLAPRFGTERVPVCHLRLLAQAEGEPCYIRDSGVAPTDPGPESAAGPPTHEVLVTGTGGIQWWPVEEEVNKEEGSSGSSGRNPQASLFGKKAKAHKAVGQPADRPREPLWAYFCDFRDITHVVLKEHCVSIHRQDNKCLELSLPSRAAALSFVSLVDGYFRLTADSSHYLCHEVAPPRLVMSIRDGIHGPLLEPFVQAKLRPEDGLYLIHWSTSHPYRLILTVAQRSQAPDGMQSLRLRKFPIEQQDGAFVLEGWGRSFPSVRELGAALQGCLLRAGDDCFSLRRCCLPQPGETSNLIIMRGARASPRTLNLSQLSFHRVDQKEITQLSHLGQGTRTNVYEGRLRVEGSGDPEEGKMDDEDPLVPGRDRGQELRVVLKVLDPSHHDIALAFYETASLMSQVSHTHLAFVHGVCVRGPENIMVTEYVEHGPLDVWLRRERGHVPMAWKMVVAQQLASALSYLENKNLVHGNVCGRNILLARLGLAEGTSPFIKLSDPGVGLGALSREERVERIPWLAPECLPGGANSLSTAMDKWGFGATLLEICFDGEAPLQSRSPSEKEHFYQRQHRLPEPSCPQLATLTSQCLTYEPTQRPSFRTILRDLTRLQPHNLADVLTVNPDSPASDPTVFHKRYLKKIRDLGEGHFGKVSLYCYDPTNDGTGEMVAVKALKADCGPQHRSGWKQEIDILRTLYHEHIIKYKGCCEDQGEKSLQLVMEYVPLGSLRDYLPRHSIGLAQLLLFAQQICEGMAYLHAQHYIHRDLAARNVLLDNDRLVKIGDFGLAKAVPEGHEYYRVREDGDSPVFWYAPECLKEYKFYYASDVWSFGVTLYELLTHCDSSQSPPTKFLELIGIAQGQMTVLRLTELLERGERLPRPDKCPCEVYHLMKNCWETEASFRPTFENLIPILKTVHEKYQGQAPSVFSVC
Property: IC50; scope: individual compounds
Result type: IC50 (nM)

>>> meas_value("N#CCCN1[C@@H]2CC[C@H]1C[C@H](Nc1nc(Nc3ncc(C(N)=O)s3)cc3ncccc13)C2")
22.2
>>> meas_value("Cc1cc(Nc2nc(N[C@@H]3C[C@H]4CC[C@@H](C3)N4S(=O)(=O)N3CC(C#N)C3)nc3ccccc23)n[nH]1")
0.46
>>> meas_value("CNCC(=O)N1[C@@H]2CCC[C@H]1C[C@H](Nc1nc(Nc3cc(C)[nH]n3)c3ccsc3n1)C2")
0.12
>>> meas_value("Cc1cc(Nc2nc(N(C)[C@@H]3C[C@H]4CC[C@@H](C3)N4S(=O)(=O)N3CC(C#N)C3)nc3sccc23)n[nH]1")
0.22
>>> meas_value("Cc1cnc(Nc2nc(N[C@@H]3C[C@H]4CC[C@@H](C3)N4S(=O)(=O)N3CC(C#N)C3)nc3ccccc23)s1")
1.26
>>> meas_value("Cc1cc(Nc2nc(N[C@@H]3C[C@H]4CC[C@@H](C3)N4C(=O)CN3CCOCC3)nc3sccc23)n[nH]1")
2.45
>>> meas_value("Cc1cc(Nc2cc3ncccc3c(N(C)[C@@H]3C[C@H]4CC[C@@H](C3)N4CCC#N)n2)n[nH]1")
1.63
>>> meas_value("Cc1cc(Nc2nc(N[C@@H]3C[C@H]4CCC[C@@H](C3)N4Cc3nccn3C)nc3sccc23)n[nH]1")
24.7
>>> meas_value("Cc1cc(Nc2nc(N(C)[C@@H]3C[C@H]4CCC[C@@H](C3)N4C(=O)CN3CCN(C)CC3)nc3sccc23)n[nH]1")
0.2
>>> meas_value("CCNCC(=O)N1[C@@H]2CC[C@H]1C[C@H](Nc1nc(Nc3cc(C)[nH]n3)c3ccsc3n1)C2")
2.38
>>> meas_value("COc1ccc2c(Nc3cc(C)[nH]n3)nc(N[C@@H]3C[C@H]4CC[C@@H](C3)N4CCC#N)nc2c1")
0.5
>>> meas_value("Cc1cc(Nc2nc(N[C@@H]3C[C@H]4CC[C@@H](C3)N4CCC#N)nc3sc(C)cc23)n[nH]1")
0.58
>>> meas_value("N#CCCN1[C@@H]2CC[C@H]1C[C@H](Nc1nc(Nc3cc(CO)[nH]n3)cc3ncccc13)C2")
40.7
>>> meas_value("Cc1cc(Nc2nc(N[C@@H]3C[C@H]4CC[C@@H](C3)N4CCC#N)nc3ccccc23)n[nH]1")
0.68

###

Target or system TYK2 (Homo sapiens); recorded quantity IC50.
Result type: IC50

>>> meas_value("Cc1cc(Nc2nc(N[C@@H]3C[C@H]4CC[C@@H](C3)N4CCC#N)nc3cc[nH]c23)n[nH]1")
"1.01 nM"
>>> meas_value("Cc1cc(Nc2nc(N[C@@H]3C[C@H]4CCC[C@@H](C3)N4S(=O)(=O)c3ccccn3)nc3sccc23)n[nH]1")
"0.39 nM"
>>> meas_value("Cc1cc(Nc2nc(N[C@@H]3C[C@H]4CC[C@@H](C3)N4CCC#N)nc3[nH]ccc23)n[nH]1")
"0.17 nM"
>>> meas_value("Cc1cc(Nc2nc(N[C@@H]3C[C@H]4CC[C@@H](C3)N4CCC#N)nc3cc(-c4cccnc4)ccc23)n[nH]1")
"0.47 nM"
>>> meas_value("Cc1cc(Nc2cc3ncccc3c(N3CC4CCC(C3)N4CCC#N)n2)n[nH]1")
"33.9 nM"
>>> meas_value("Cc1cc(Nc2nc(N[C@@H]3C[C@H]4CCC[C@@H](C3)N4C(=O)CN3CCN(C)CC3)nc3sccc23)n[nH]1")
"0.61 nM"
>>> meas_value("COCCS(=O)(=O)N1[C@@H]2CC[C@H]1C[C@H](Nc1nc(Nc3cc(C)[nH]n3)c3ccccc3n1)C2")
"2.09 nM"

###

# Protocol notes: Balb/C mouse pharmacokinetics (plasma, colon, ileum)
# Format: in vivo
# Condition set: male, plasma, po, Balb/C mice, p.o. 5 mg/kg, blood, read-out: Time to peak tmax
Result type: Tmax (h)

>>> meas_value("Cc1cc(Nc2nc(N[C@@H]3C[C@H]4CC[C@@H](C3)N4CCC#N)nc3cc(-c4cccnc4)ccc23)n[nH]1")
0.5
>>> meas_value("Cc1cc(Nc2nc(N[C@@H]3C[C@H]4CC[C@@H](C3)N4S(=O)(=O)N3CC(C#N)C3)nc3sccc23)n[nH]1")
2
>>> meas_value("Cc1cc(Nc2nc(N[C@@H]3C[C@H]4CC[C@@H](C3)N4CCC#N)nc3cc(Cl)ccc23)n[nH]1")
2
>>> meas_value("Cc1cc(Nc2nc(N[C@@H]3C[C@H]4CC[C@@H](C3)N4CCC#N)nc3ccsc23)n[nH]1")
2
>>> meas_value("Cc1cc(Nc2nc(N[C@@H]3C[C@H]4CCC[C@@H](C3)N4C(=O)CN3CCOCC3)nc3sccc23)n[nH]1")
2
>>> meas_value("Cc1cc(Nc2nc(N[C@@H]3C[C@H]4CC[C@@H](C3)N4CCC#N)nc3c2cnn3C)n[nH]1")
2
>>> meas_value("Cc1cc(Nc2nc(N[C@@H]3C[C@H]4CCC[C@@H](C3)N4C(=O)c3nccn3C)nc3sccc23)n[nH]1")
3
>>> meas_value("Cc1cc(Nc2nc(N[C@@H]3C[C@H]4CCC[C@@H](C3)N4C(=O)c3ccncc3)nc3sccc23)n[nH]1")
2

###

# System tested: TYK2 (Homo sapiens, UniProt P29597)
Result type: log10 of IC50 (log10 of the value in nM)

>>> meas_value("Cc1cc(Nc2nc(N[C@@H]3C[C@H]4CC[C@@H](C3)N4CCC#N)nc3sccc23)n[nH]1")
-0.77
>>> meas_value("Cc1cc(Nc2nc(N[C@@H]3C[C@H]4CC[C@@H](C3)N4S(=O)(=O)c3cccnc3)nc3ccccc23)n[nH]1")
0.30
>>> meas_value("Cc1cc(Nc2nc(N[C@@H]3C[C@H]4CC[C@@H](C3)N4S(=O)(=O)N3CC(C#N)C3)nc3cccnc23)n[nH]1")
0.63
>>> meas_value("Cc1cc(Nc2nc(N[C@@H]3C[C@H]4CC[C@@H](C3)N4CCC#N)nc3c2cnn3C)n[nH]1")
1.03
>>> meas_value("Cc1cc(Nc2nc(N[C@@H]3C[C@H]4CCC[C@@H](C3)N4C(=O)CN3CCOCC3)nc3sccc23)n[nH]1")
0.27
>>> meas_value("Cc1cc(Nc2nc(N[C@@H]3C[C@H]4CCC[C@@H](C3)N4CC(=O)N(C)C)nc3sccc23)n[nH]1")
0.76
>>> meas_value("Cc1cc(Nc2nc(N[C@@H]3C[C@H]4CC[C@@H](C3)N4S(=O)(=O)N3CC(C#N)C3)nc3cc(C)sc23)n[nH]1")
1.15
>>> meas_value("Cc1cc(Nc2nc(N[C@@H]3C[C@H]4CCC[C@@H](C3)N4C(=O)c3ccncc3)nc3sccc23)n[nH]1")
0.13
>>> meas_value("Cc1cc(Nc2nc(N[C@@H]3C[C@H]4CC[C@@H](C3)N4S(=O)(=O)N3CC(C#N)C3)nc3cc(F)ccc23)n[nH]1")
-0.57
>>> meas_value("Cc1cc(Nc2nc(N[C@@H]3C[C@H]4CCC[C@@H](C3)N4S(=O)(=O)c3cccnc3)nc3sccc23)n[nH]1")
-0.72
>>> meas_value("Cc1cc(Nc2nc(N[C@@H]3C[C@H]4CC[C@@H](C3)N4C(=O)CN(C)C)nc3ccsc23)n[nH]1")
0.62
>>> meas_value("Cc1cc(Nc2nc(N(C)[C@@H]3C[C@H]4CC[C@@H](C3)N4S(=O)(=O)N3CC(C#N)C3)nc3sc(C)cc23)n[nH]1")
-0.17
>>> meas_value("CN(c1nc(Nc2cc(CO)[nH]n2)c2ccc(Cl)cc2n1)[C@@H]1C[C@H]2CC[C@@H](C1)N2CCC#N")
0.68
>>> meas_value("Cn1cnc(Nc2cc3ncccc3c(N[C@@H]3C[C@H]4CC[C@@H](C3)N4CCC#N)n2)c1")
0.66
>>> meas_value("N#CCCN1[C@@H]2CC[C@H]1C[C@H](Nc1nc(Nc3cc(C4CC4)[nH]n3)cc3ncccc13)C2")
1.00
>>> meas_value("Cc1cc(Nc2nc(N[C@@H]3C[C@H]4CC[C@@H](C3)N4CCC#N)nc3cc(-c4cnn(C)c4)ccc23)n[nH]1")
-0.70
>>> meas_value("Cc1cc(Nc2nc(N[C@@H]3C[C@H]4CC[C@@H](C3)N4CCC#N)nc3cc(-n4ccnc4)ccc23)n[nH]1")
-0.72
>>> meas_value("Cc1cc(Nc2cc3nccnc3c(N[C@@H]3C[C@H]4CC[C@@H](C3)N4CCC#N)n2)n[nH]1")
0.55
>>> meas_value("Cc1cc(Nc2nc(O[C@@H]3C[C@H]4CC[C@@H](C3)N4CCC#N)nc3sccc23)n[nH]1")
-0.18
>>> meas_value("Cc1cc(Nc2nc(N[C@@H]3C[C@H]4CC[C@@H](C3)N4CCC#N)nc3ccsc23)n[nH]1")
-0.34
>>> meas_value("Cc1cc(Nc2nc(N[C@@H]3C[C@H]4CC[C@@H](C3)N4CCC#N)nc3cc(N4CCOCC4)ccc23)n[nH]1")
-0.03
>>> meas_value("Cc1cc(Nc2nc(N[C@@H]3C[C@H]4CCC[C@@H](C3)N4C(=O)c3cccnc3)nc3sccc23)n[nH]1")
0.75
>>> meas_value("Cc1cc(Nc2nc(N[C@@H]3C[C@H]4CCC[C@@H](C3)N4C(=O)[C@H]3COCCN3)nc3sccc23)n[nH]1")
-1.15
>>> meas_value("CN(c1nc(Nc2cc(CO)[nH]n2)c2ccc(Cl)cc2n1)[C@@H]1C[C@H]2CCC[C@@H](C1)N2CCC#N")
0.43
>>> meas_value("Cc1cc(Nc2nc(N[C@@H]3C[C@H]4CC[C@@H](C3)N4CCC#N)nc3[nH]ncc23)n[nH]1")
-0.62
